- System: LHPP gene
- Assay notes: High-throughput screening of saRNAs targeting LHPP promoter: LHPP mRNA by one-step RT-qPCR in Huh7 cells
- Format: cell-based, human
- Recorded conditions: 10 nM saRNA, 72 hours, relative to control (Mock)
d = 2'-deoxy (DNA); r = 2'-OH (RNA)
Fold of changes in relative LHPP mRNA expression level (log2) listing for selected substances.
Just the number in log2, nothing appended.

Substance	Endpoint result
RAG7-86: saRNA duplex; sense CCGUUUCAGGGGCGAGUGATT (SEQ ID NO: 137), antisense UCACUCGCCCCUGAAACGGTT (SEQ ID NO: 301) (sugars from the 5' end r19 d2, backbone not given here)	0.20
RAG7-892: saRNA duplex; sense UGUUGGACCAGAAGUAAAGTT (SEQ ID NO: 2), antisense CUUUACUUCUGGUCCAACATT (SEQ ID NO: 166) (sugars from the 5' end r19 d2, backbone not given here)	1.03
RAG7-697: saRNA duplex; sense CCCAGGUCCUAUGCAUCCUTT (SEQ ID NO: 41), antisense AGGAUGCAUAGGACCUGGGTT (SEQ ID NO: 205) (sugars from the 5' end r19 d2, backbone not given here)	0.51
RAG7-178: saRNA duplex; sense AAUUUGCCUUUGACCUUUCTT (SEQ ID NO: 5), antisense GAAAGGUCAAAGGCAAAUUTT (SEQ ID NO: 169) (sugars from the 5' end r19 d2, backbone not given here)	0.82
RAG7-139: saRNA duplex; sense UUUCCUGCUCUUUGUCCGCTT (SEQ ID NO: 7), antisense GCGGACAAAGAGCAGGAAATT (SEQ ID NO: 171) (sugars from the 5' end r19 d2, backbone not given here)	0.79
RAG7-848: saRNA duplex; sense GAAAGGUUCCGAGGGGCCATT (SEQ ID NO: 87), antisense UGGCCCCUCGGAACCUUUCTT (SEQ ID NO: 251) (sugars from the 5' end r19 d2, backbone not given here)	0.32
RAG7-29: saRNA duplex; sense CACCCGGUCUUCUUGCCCUTT (SEQ ID NO: 79), antisense AGGGCAAGAAGACCGGGUGTT (SEQ ID NO: 243) (sugars from the 5' end r19 d2, backbone not given here)	0.35

Tell me its Fold of changes in relative LHPP mRNA expression level (log2) given RAG7-172: saRNA duplex; sense CCUUUGACCUUUCUUAGGGTT (SEQ ID NO: 81), antisense CCCUAAGAAAGGUCAAAGGTT (SEQ ID NO: 245) (sugars from the 5' end r19 d2, backbone not given here) as the entry.
0.34

###

- Tested on: LHPP gene
- Assay notes: High-throughput screening of saRNAs targeting LHPP promoter: LHPP mRNA by one-step RT-qPCR in Huh7 cells
- Assay type: cell-based, human
- Recorded conditions: 10 nM saRNA, 72 hours, relative to control (Mock)
d = 2'-deoxy (DNA); r = 2'-OH (RNA)
Measured attribute: Fold of changes in relative LHPP mRNA expression level (log2)
// return numeric value only (unit: log2, not printed)

Substance	Readout unit	Endpoint result
RAG7-693: saRNA duplex; sense GGUCCUAUGCAUCCUCAUCTT (SEQ ID NO: 98), antisense GAUGAGGAUGCAUAGGACCTT (SEQ ID NO: 262) (sugars from the 5' end r19 d2, backbone not given here)	log2	0.29

Let us examine a further case.
Please look at this substance and report its Fold of changes in relative LHPP mRNA expression level (log2): RAG7-176: saRNA duplex; sense UUUGCCUUUGACCUUUCUUTT (SEQ ID NO: 110), antisense AAGAAAGGUCAAAGGCAAATT (SEQ ID NO: 274) (sugars from the 5' end r19 d2, backbone not given here)
0.26

###

Reported values of Fold of changes in relative LHPP mRNA expression level for individual entries
- Tested on: LHPP gene
- Assay notes: High-throughput screening of saRNAs targeting LHPP promoter: LHPP mRNA by one-step RT-qPCR in Huh7 cells
- Type: cell-based, human
- Recorded conditions: 10 nM saRNA, 72 hours, relative to control (Mock)
d = 2'-deoxy (DNA); r = 2'-OH (RNA)
Report as: number unit

Substance	Endpoint result
RAG7-189: saRNA duplex; sense CUUCUUGUCUCAAUUUGCCTT (SEQ ID NO: 35), antisense GGCAAAUUGAGACAAGAAGTT (SEQ ID NO: 199) (sugars from the 5' end r19 d2, backbone not given here)	1.47 fold
RAG7-193: saRNA duplex; sense GUGCCUUCUUGUCUCAAUUTT (SEQ ID NO: 113), antisense AAUUGAGACAAGAAGGCACTT (SEQ ID NO: 277) (sugars from the 5' end r19 d2, backbone not given here)	1.19 fold
RAG7-916: saRNA duplex; sense CUCUUCUUUGAAAGCUCAATT (SEQ ID NO: 33), antisense UUGAGCUUUCAAAGAAGAGTT (SEQ ID NO: 197) (sugars from the 5' end r19 d2, backbone not given here)	1.48 fold

Could you now look at the following substance, please?
Give Fold of changes in relative LHPP mRNA expression level for RAG7-137: saRNA duplex; sense UCCUGCUCUUUGUCCGCUGTT (SEQ ID NO: 151), antisense CAGCGGACAAAGAGCAGGATT (SEQ ID NO: 315) (sugars from the 5' end r19 d2, backbone not given here) tested on LHPP gene.
1.12 fold

###

# Fold of changes in relative LHPP mRNA expression level (log2) annotations
- Tested on: LHPP gene
- Assay notes: High-throughput screening of saRNAs targeting LHPP promoter: LHPP mRNA by one-step RT-qPCR in Huh7 cells
- Type: cell-based, human
- Recorded conditions: 10 nM saRNA, 72 hours, relative to control (Mock)
d = 2'-deoxy (DNA); r = 2'-OH (RNA)
Use log2 as the unit, but write only the number.

Substance	Readout unit	Endpoint result
RAG7-695: saRNA duplex; sense CAGGUCCUAUGCAUCCUCATT (SEQ ID NO: 54), antisense UGAGGAUGCAUAGGACCUGTT (SEQ ID NO: 218) (sugars from the 5' end r19 d2, backbone not given here)	log2	0.44

// moving on: another record for Fold of changes in relative LHPP mRNA expression level (log2)
For the substance RAG7-112: saRNA duplex; sense UGGGAAGAAAGCUUCCGAATT (SEQ ID NO: 82), antisense UUCGGAAGCUUUCUUCCCATT (SEQ ID NO: 246) (sugars from the 5' end r19 d2, backbone not given here) , give its measured Fold of changes in relative LHPP mRNA expression level (log2) value.
0.33

###

Here, each record is paired with measured Fold of changes in relative LHPP mRNA expression level data.
- Test system: LHPP gene
- Assay notes: High-throughput screening of saRNAs targeting LHPP promoter: LHPP mRNA by one-step RT-qPCR in Huh7 cells
- Format: cell-based, human
- Recorded conditions: 10 nM saRNA, 72 hours, relative to control (Mock)
d = 2'-deoxy (DNA); r = 2'-OH (RNA)
Write down the numeric answer in fold and omit the unit.

Example substances with recorded Fold of changes in relative LHPP mRNA expression level:
Substance	Assayed system	Endpoint result
RAG7-144: saRNA duplex; sense CUGCUUUUCCUGCUCUUUGTT (SEQ ID NO: 18), antisense CAAAGAGCAGGAAAAGCAGTT (SEQ ID NO: 182) (sugars from the 5' end r19 d2, backbone not given here)	LHPP gene	1.56
RAG7-107: saRNA duplex; sense AGAAAGCUUCCGAAAAGGATT (SEQ ID NO: 156), antisense UCCUUUUCGGAAGCUUUCUTT (SEQ ID NO: 320) (sugars from the 5' end r19 d2, backbone not given here)	LHPP gene	1.11
RAG7-839: saRNA duplex; sense CGAGGGGCCAUUGAGGAAATT (SEQ ID NO: 158), antisense UUUCCUCAAUGGCCCCUCGTT (SEQ ID NO: 322) (sugars from the 5' end r19 d2, backbone not given here)	LHPP gene	1.11
RAG7-111: saRNA duplex; sense GGGAAGAAAGCUUCCGAAATT (SEQ ID NO: 117), antisense UUUCGGAAGCUUUCUUCCCTT (SEQ ID NO: 281) (sugars from the 5' end r19 d2, backbone not given here)	LHPP gene	1.18
RAG7-850: saRNA duplex; sense UUGAAAGGUUCCGAGGGGCTT (SEQ ID NO: 46), antisense GCCCCUCGGAACCUUUCAATT (SEQ ID NO: 210) (sugars from the 5' end r19 d2, backbone not given here)	LHPP gene	1.39

Report its Fold of changes in relative LHPP mRNA expression level with LHPP gene as the test system: RAG7-684: saRNA duplex; sense CAUCCUCAUCUAUGCAGGGTT (SEQ ID NO: 47), antisense CCCUGCAUAGAUGAGGAUGTT (SEQ ID NO: 211) (sugars from the 5' end r19 d2, backbone not given here)
1.39

Report Fold of changes in relative LHPP mRNA expression level under test system LHPP gene for RAG7-162: saRNA duplex; sense UUCUUAGGGACUUGUUUUCTT (SEQ ID NO: 19), antisense GAAAACAAGUCCCUAAGAATT (SEQ ID NO: 183) (sugars from the 5' end r19 d2, backbone not given here) .
1.56

For LHPP gene, give Fold of changes in relative LHPP mRNA expression level of the listed substance: RAG7-97: saRNA duplex; sense CGAAAAGGACACCGUUUCATT (SEQ ID NO: 71), antisense UGAAACGGUGUCCUUUUCGTT (SEQ ID NO: 235) (sugars from the 5' end r19 d2, backbone not given here)
1.29
